- system: ENPP3 (human)
- Sequence (chain, as listed by the source): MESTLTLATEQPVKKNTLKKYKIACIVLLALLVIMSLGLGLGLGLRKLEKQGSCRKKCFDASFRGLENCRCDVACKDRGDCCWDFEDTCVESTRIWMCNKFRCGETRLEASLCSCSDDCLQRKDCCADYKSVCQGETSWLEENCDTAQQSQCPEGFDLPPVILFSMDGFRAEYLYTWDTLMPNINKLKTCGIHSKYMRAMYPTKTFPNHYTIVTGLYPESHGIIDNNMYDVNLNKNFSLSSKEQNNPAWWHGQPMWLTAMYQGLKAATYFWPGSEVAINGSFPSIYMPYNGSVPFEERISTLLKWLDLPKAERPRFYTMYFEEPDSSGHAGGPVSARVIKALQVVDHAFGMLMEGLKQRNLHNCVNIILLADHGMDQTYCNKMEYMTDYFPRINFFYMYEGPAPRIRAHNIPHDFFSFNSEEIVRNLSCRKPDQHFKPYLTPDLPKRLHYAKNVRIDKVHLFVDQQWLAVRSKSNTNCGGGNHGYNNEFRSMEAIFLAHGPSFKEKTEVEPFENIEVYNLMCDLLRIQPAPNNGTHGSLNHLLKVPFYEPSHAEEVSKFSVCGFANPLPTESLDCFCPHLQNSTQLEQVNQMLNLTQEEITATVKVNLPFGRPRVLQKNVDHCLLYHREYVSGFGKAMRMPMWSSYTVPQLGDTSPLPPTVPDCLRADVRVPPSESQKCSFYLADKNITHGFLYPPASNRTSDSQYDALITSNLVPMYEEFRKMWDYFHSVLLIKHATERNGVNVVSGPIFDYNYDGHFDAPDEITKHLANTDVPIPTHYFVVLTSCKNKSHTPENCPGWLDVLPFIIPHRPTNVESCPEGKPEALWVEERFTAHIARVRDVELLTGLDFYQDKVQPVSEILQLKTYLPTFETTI
attribute-measured: Kd (nM)
Give the value in nM but do not write nM after it.

SX13-10 (CAR48) (antibody) QLLESGGGLVKPGGSLRLSCAASGFTFSRYNMNWVRQAPGKGLEWVSFISGSSSYVYYADSVKGRFTISKDNAKNSLYLQMNSLRAEDTAVYYCARSGYCTSTTCYNYYYYYMDVWGKGTTVTVSSSGGGGSGGGGSGGGGSEIVLMQSPGTLSLSPGERATLSCRASQSVSNSYLAWYQQKPGQAPRLLIYGASSRATGIPDRFSGSGSGTDFTLTISRLEPEDFAVFYCQQFGSSPLTFGGGTKVEIK | 113

Query string: Field request: Kd | item: SX13-1 (CAR42) (antibody) QLVESGGGLVKPGGSLRLSCAASGFTFSDYSMNWVRQAPGKGLEWVSSISSSSRYKYYADSMKGRFTISRDNAKNSLYLQMNSLRVEDTAVYYCTRGIDYFDYWGQGTLVTVSSSGGGGSGGGGSGGGGSDIQLTQSPSFLSASVGDRVTITCRASQDINNYLAWYQQKPGKAPKFLIHVASTLQSGVPSRFSGSGSGTEFTLTISSLQPEDSATYYCQQLNSYPRTFGQGTKVEIK
Result string: 18.9

Query string: I have this binder here, SX13-7 (CAR46) (antibody) QLVESGGGLVKPGGSLRLSCAASGFTFSDYSMNWVRQAPGKGLEWVSSISSSSSYKKYADSVKGRLTISRDNAKNSLYLQMNSLRAEDTAVYYCARGIDYFDYWGQGTLVTVSSSGGGGSGGGGSGGGGSDIQLTQSPSFLSASVGDRVTITCRASQGISSNLAWYQQKPGKDPKVLIYGASTLQSGVPSRFSGSGSGTEFTLTISSLQPEDFATYYCQQLNSYPRTFGQGTKVEIK , and I need its recorded Kd.
Result string: 4.24

Query string: Given the entry SX13-12 (CAR49) (antibody) QLVESGGGLVKPGGSLRLSCAASGFTFSDYSMNWVRQAPGKGLNWVASISSSSHYKYYADSVKGRFTISRDNAKNSLYLQMNSLRAEDTAVYYCARGIDFFDIWGQGTMVTVSSSGGGGSGGGGSGGGGSDIQLTQSPSFLSASVGDRVTITCRASQDINSYLVWYQQKPGKAPKLLIYTASTLQSGVPSRFSGSGSGTEFTLTIRSLQPEDFATYYCQQLNSYPRTFGQGTKVEIK , report its measured Kd.
Result string: 23.5

Where these numbers come from: patent US20260315592
